# System: velvetleaf (Abutilon theophrasti, ABUTH)
# Test: Post-emerge greenhouse herbicide activity screening, phytotoxicity rating
# Assay type: in vivo
# Run parameters: 125 g ai/ha, 14 days after application
Observation type: ABUTH phytotoxicity rating (0-100 scale)
# respond with the number and nothing more

Which ABUTH phytotoxicity rating (0-100 scale) value is on record for Cn1c(=S)n(C)c(=O)n(-c2cc(Oc3ncccn3)c(Cl)cc2F)c1=O ?
100

Which ABUTH phytotoxicity rating (0-100 scale) value is on record for Cn1c(C(F)(F)F)cc(=O)n(-c2cc(Oc3ccccc3O)c(C#N)cc2F)c1=S ?
100

Which ABUTH phytotoxicity rating (0-100 scale) value is on record for Cn1c(=S)n(C)c(=O)n(-c2cc(Oc3ccccc3[N+](=O)[O-])c(Cl)cc2F)c1=O ?
95

Which ABUTH phytotoxicity rating (0-100 scale) value is on record for N#Cc1c(-c2cc(Oc3ncccn3)c(Cl)cc2F)nn2c1CCCC2 ?
100

Which ABUTH phytotoxicity rating (0-100 scale) value is on record for Fc1cc(Cl)c(Oc2ncccn2)cc1-c1nn2c(c1Cl)CCCC2 ?
100

Which ABUTH phytotoxicity rating (0-100 scale) value is on record for Cn1c(=S)n(C)c(=O)n(-c2cc(Oc3ccccc3)c(Cl)cc2F)c1=O ?
0

Which ABUTH phytotoxicity rating (0-100 scale) value is on record for Cn1c(C(F)(F)F)cc(=O)n(-c2cc(Oc3ncccc3[N+](=O)[O-])c(Cl)cc2F)c1=S ?
100

Which ABUTH phytotoxicity rating (0-100 scale) value is on record for Cn1c(=S)n(C)c(=O)n(-c2cc(Oc3ccccc3N)c(Cl)cc2F)c1=O ?
0

---

# Tested on: field corn (Zea mays L., var. Dekalb 535, CORN)
# Test: Post-emerge greenhouse screening, crop safety / corn selectivity (phytotoxicity rating)
# Format: in vivo
# Run parameters: 250 g ai/ha, 14 days after application
Observation type: CORN crop damage, phytotoxicity rating (0-100 scale)

Which CORN crop damage, phytotoxicity rating (0-100 scale) value is on record for Cn1c(C(F)(F)F)cc(=O)n(-c2cc(Oc3ncccc3C(F)(F)F)c(Cl)cc2F)c1=S ?
5

Which CORN crop damage, phytotoxicity rating (0-100 scale) value is on record for Cn1c(C(F)(F)F)cc(=O)n(-c2cc(Oc3ccccc3)c(C#N)cc2F)c1=S ?
5

Which CORN crop damage, phytotoxicity rating (0-100 scale) value is on record for Cn1c(C(F)(F)F)cc(=O)n(-c2cc(Oc3ccccc3N)c(Cl)cc2F)c1=S ?
10

Which CORN crop damage, phytotoxicity rating (0-100 scale) value is on record for Fc1cc(Cl)c(Oc2ncccn2)cc1-c1nn2c(c1Cl)CCCC2 ?
20

Which CORN crop damage, phytotoxicity rating (0-100 scale) value is on record for Cn1c(=S)n(C)c(=O)n(-c2cc(Oc3ccccc3N)c(Cl)cc2F)c1=O ?
0

Which CORN crop damage, phytotoxicity rating (0-100 scale) value is on record for Cn1nc(-c2cc(Oc3ncccn3)c(Cl)cc2F)c(=O)n(C)c1=S ?
15

Which CORN crop damage, phytotoxicity rating (0-100 scale) value is on record for Cn1c(C(F)(F)F)cc(=O)n(-c2cc(Oc3ncccc3[N+](=O)[O-])c(Cl)cc2F)c1=S ?
3

Which CORN crop damage, phytotoxicity rating (0-100 scale) value is on record for Cn1nc(-c2cc(Oc3ncccn3)c(Cl)cc2F)c(Cl)c1[S+]([O-])C(F)F (stereo not shown) ?
8

Which CORN crop damage, phytotoxicity rating (0-100 scale) value is on record for Cn1c(C(F)(F)F)cc(=O)n(-c2cc(Oc3ccccc3)c(Cl)cc2F)c1=S ?
0

Which CORN crop damage, phytotoxicity rating (0-100 scale) value is on record for Cn1c(=S)n(C)c(=O)n(-c2cc(Oc3ccccc3[N+](=O)[O-])c(Cl)cc2F)c1=O ?
8

Which CORN crop damage, phytotoxicity rating (0-100 scale) value is on record for Cn1c(C(F)(F)F)cc(=O)n(-c2cc(Oc3ccccc3C#N)c(Cl)cc2F)c1=S ?
0

Which CORN crop damage, phytotoxicity rating (0-100 scale) value is on record for Fc1cc(Cl)c(Oc2ncccn2)cc1-c1nn2c(c1Br)CCCC2 ?
15

Which CORN crop damage, phytotoxicity rating (0-100 scale) value is on record for Cn1c(=S)n(C)c(=O)n(-c2cc(Oc3ccccc3)c(Cl)cc2F)c1=O ?
0
